study.target: CD82 (mouse) (mouse, UniProt P40237)
assay.info: IP with anti CD82 antibodies, mouse muscle tissue, mass spectrometry
quantity.kind: Total
Answer using only a numeral; do not append any unit.

input: Reported Total, binder FBX50_MOUSE (other) MEKTQDRDTLSGRMEAEGSLNSEELPPHPQSPPPPPSPRSPTSPVTPELPQPNAPTEVEARQLLVEEWGPLSGKLELPPRISWQLLFLERPLYRNLLSSPNPEGINIYQPAPPTGPTRKPLKELGNFRGWYITTQNLQGPLSWTVKEQCVNLLAKKLWEELLDDEQPDITIMDWFEDSRLDQCVYELHVWLLAADRRTVIAQHHVAPRTNGRGPPGRWIQVSHVFRQYGPGVRFVYFQHKAKNRMEPGGLRRTRVTDSSVSVQLRE : ____
output: 2
